experiment: Cytotoxicity against mouse BMDM cells assessed as cell viability at 50 uM incubated for 24 hrs by MTT assay; type: toxicity, cell-based; details: BMDM cells (bone marrow-derived macrophages), read-out: Activity
Lab note - cut at 200% for viability at 24 h, 50 µM: met if strictly below, not met if not.

C=C[C@]1(C)CC[C@@H](C(=C)COCCCCOc2ccc(C(N)=S)cc2)C[C@H]1C(=C)C    met
C=C[C@]1(C)CC[C@@H](C(=C)COC(=O)C(NC(=O)CCCCC2CCSS2)C(C)CC)C[C@H]1C(=C)C (stereo partly drawn)    not met
C=C[C@]1(C)CC[C@@H](C(=C)COC(=O)/C=C\C(=O)OCCOc2ccc(-c3cc(=S)ss3)cc2)C[C@H]1C(=C)C    met
C=C[C@]1(C)CC[C@@H](C(=C)COC(=O)c2ccccc2C(=O)OCCOc2ccc(-c3cc(=S)ss3)cc2)C[C@H]1C(=C)C    not met
C=C[C@]1(C)CC[C@@H](C(=C)COC(=O)CCC(=O)OCCOc2ccc(-c3cc(=S)ss3)cc2)C[C@H]1C(=C)C    not met
C=C[C@]1(C)CC[C@@H](C(=C)C)C[C@H]1C(=C)COC(=O)CCC(=O)OCCOc1ccc(-c2cc(=S)ss2)cc1    not met
C=C[C@]1(C)CC[C@@H](C(=C)C)C[C@H]1C(=C)COC(=O)CCCCC1CCSS1 (stereo partly drawn)    met
C=C[C@]1(C)CC[C@@H](C(=C)COCCCCCCCCOc2ccc(C(N)=S)cc2)C[C@H]1C(=C)C    met

---

Some compounds, each annotated with its measured viability at 24 h, 50 µM.
assay: Cytotoxicity against mouse BMDM cells assessed as cell viability at 50 uM incubated for 24 hrs by MTT assay; assay type: toxicity, cell-based; settings: BMDM cells (bone marrow-derived macrophages), read-out: Activity
Metric name: viability at 24 h, 50 µM (%)

C=C[C@]1(C)CC[C@@H](C(=C)COC(=O)CCCCCCC(=O)Oc2ccc(-c3cc(=S)ss3)cc2)C[C@H]1C(=C)C    189
C=C[C@]1(C)CC[C@@H](C(=C)C)C[C@H]1C(=C)COC(=O)C(NC(=O)CCC(=O)OCCOc1ccc(-c2cc(=S)ss2)cc1)C(C)CC (some centres not stated)    269
C=C[C@]1(C)CC[C@@H](C(=C)COC(=O)c2c(F)cccc2C(=O)OCCOc2ccc(-c3cc(=S)ss3)cc2)C[C@H]1C(=C)C    193
C=C[C@]1(C)CC[C@@H](C(=C)COC(=O)CCC(=O)OCCOc2ccc(-c3nc(=O)ss3)cc2)C[C@H]1C(=C)C    266
C=C[C@]1(C)CC[C@@H](C(=C)COCCCCCCOc2ccc(C(N)=S)cc2)C[C@H]1C(=C)C    279
C=C[C@]1(C)CC[C@@H](C(=C)COC(=O)CCCCCC(=O)Oc2ccc(C(N)=S)cc2)C[C@H]1C(=C)C    177
C=C[C@]1(C)CC[C@@H](C(=C)COC(=O)CCCCCC(=O)Oc2ccc(-c3cc(=S)ss3)cc2)C[C@H]1C(=C)C    232

---

# reported Activity; entries follow
test system: Thoracic aorta; experiment: Vasodilation activity against KCl-induced Sprague-Dawley rat thoracic aorta vessels contraction at 5 uM; assay type: functional
Metric name: Activity

C=C[C@]1(C)CC[C@@H](C(=C)COC(=O)CCCCCC(=O)Oc2ccc(C(N)=S)cc2)C[C@H]1C(=C)C    4.53%
C=C[C@]1(C)CC[C@@H](C(=C)C)C[C@H]1C(=C)COC(=O)C(NC(=O)CCCCC1CCSS1)C(C)CC (some centres undefined)    2.78%
C=C[C@]1(C)CC[C@@H](C(=C)COC(=O)CCC(=O)OCCOc2ccc(-c3cc(=S)ss3)cc2)C[C@H]1C(=C)C    6.87%
C=C[C@]1(C)CC[C@@H](C(=C)COC(=O)C(NC(=O)CCCCC2CCSS2)C(C)CC)C[C@H]1C(=C)C (some centres undefined)    -8.16%
